Molecular target: wildtype HIV-1 protease (Human immunodeficiency virus type 1 group M subtype B)
Construct: the wildtype HIV-1 protease (which was expressed in Escherichia coli); made in house; host or cells: Escherichia coli
Assay: Assay for inhibition of microbial expressed HIV protease (Pepcleav)
Assay type: biochemical
Details: wild type HIV-1 protease expressed in E. coli, peptide substrate, pH 5.5; mean of at least two independent experiments; read-out: Pepcleav
Experimental: Assay for Inhibition of Microbial Expressed HIV Protease (“Pepcleav”) Studies of the inhibition of the wildtype HIV-1 protease (which was expressed in Escherichia coli) were carried out with a peptide substrate [Val-Ser-Gln-Asn-(βnaphthyl)Ala-Pro-Ile-Val (SEQ ID NO:1)]. […] The extent of inhibition of the reaction is determined from the peak area of the products.
# label = true (1) if IC50 < 20 nM else false (0)

N[C@@H](Cc1ccccc1C1CC1)C(=O)Nc1cncc(F)c1CC[C@@H]1CN[C@H](COC(=O)NCC(F)(F)F)CO1 false (0)
COC(=O)N[C@H](C(=O)Nc1ccccc1CC[C@@H]1CN[C@H](COC(=O)N[C@H]2COC[C@@H]2F)CO1)C(c1ccccc1)c1ccccc1 true (1)
O=C(NCC(F)(F)F)OC[C@@H]1CO[C@H](CCc2c(F)cncc2NC(=O)[C@@H](NC(=O)OC2CCCC2)C(c2ccc(F)cc2)c2ccc(F)cc2)CN1 true (1)
COC(=O)N[C@H](C(=O)Nc1ccccc1CC[C@@H]1CN[C@H](CNC(=O)Nc2ccccn2)CO1)C(c1ccccc1)c1ccccc1 true (1)

State whether 20 nM exceeds IC50 recorded for `CCNC(=O)Nc1ccccc1CC[C@@H]1CO[C@H](CCc2ccccc2NC(=O)[C@@H](NC(=O)OC)C(c2ccccc2)c2ccccc2)CN1` .
true (1)

Also `N[C@H](C(=O)Nc1cc(F)cc(F)c1OC[C@@H]1CN[C@H](COC(=O)NCC(F)(F)F)CO1)C(c1ccc(F)cc1)c1ccc(F)cc1` ?
true (1)

Also `COC(=O)N[C@H](C(=O)Nc1cccc(F)c1CC[C@@H]1CN[C@H](COC(=O)NCC(F)(F)F)CO1)[C@H](c1ccccc1)c1ccc(OC)cc1` ?
false (0)

Also `N[C@H](C(=O)Nc1cncc(F)c1CC[C@@H]1CN[C@H](COC(=O)NCc2cc3ccccc3cn2)CO1)C(c1ccc(F)cc1)c1ccc(F)cc1` ?
false (0)

Also `NC(=O)OC[C@@H]1CO[C@H](CCc2c(F)cccc2NC(=O)[C@@H](N)C(c2ccc(F)cc2)c2ccc(F)cc2)CN1` ?
true (1)

Also `COC(=O)N[C@H](C(=O)Nc1ccccc1CC[C@@H]1CN[C@H](CNS(=O)(=O)c2cccc(C(F)(F)F)n2)CO1)C(c1ccccc1)c1ccccc1` ?
false (0)

Also `N[C@H](C(=O)Nc1cncc(F)c1OC[C@@H]1CN[C@H](COC(=O)NCC(F)(F)F)CO1)C(c1ccc(F)cc1)c1ccc(F)cc1` ?
false (0)

Also `CNC(=O)OC[C@@H]1CO[C@H](CCc2ccccc2NC(=O)[C@@H](NC(=O)OC)C(c2ccccc2)c2ccccc2)CN1` ?
false (0)

The values you see were collected from patent US9315475B2.
